experiment: chemical genetic growth profiling, strain panel (AID 1159580);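 note: tested at 20 µM; growth read once vehicle control cultures reached saturation at 30 °C; 1 = growth at the plate median or of vehicle wells; lower values mean less growth of the strain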; settings: S. cerevisiae deletion strains, growth OD, locus YDR297W, strain sur2, active compounds read low
Screen size: about 5,500 compounds; about 2,000 (36%) were called active. Inconclusive results (about 18%) are left out. The list shows a part of the results.

{"columns": ["Molecule", "normalized growth"],
 "data": [
  ["CCCC(C)C1(CC)C(=O)N=C(S)NC1=O (configuration not stated)", 0.997],
  ["CC1(C)CCCC2(C)C3C1[C@@H](O)C2(C)C[C@H]3O (some centres not stated)", 0.985],
  ["C=CCC1(C(C)CCC)C(=O)N=C(S)NC1=O (configuration not stated)", 0.983],
  ["Cc1ccc(/C(=C\\CN2CCCC2)c2ccccn2)cc1", 1.02],
  ["COc1cccc(/C=C/C(=O)O)c1C(C)C", 0.973],
  ["Cc1occc(=O)c1O", 0.971],
  ["COC(=O)C[C@H]1C(C)(C)C(=O)[C@@H]2CC3=C4CC(=O)O[C@@H](c5ccoc5)[C@]4(C)CCC3[C@@]1(C)C2=O (some centres not stated)", 0.996],
  ["CCCC(C)C1(CC)C(=O)NC(=O)NC1=O (configuration not stated)", 1],
  ["C1CCN2CC3CC(CN4CCCCC34)C2C1 (configuration not stated)", 1.01],
  ["O=C1CCCC2C3CC(CN12)[C@@H]1CCCCN1C3 (some centres not stated)", 0.993],
  ["Nc1ccc(S(=O)(=O)Nc2ccc(Cl)nn2)cc1", 0.993],
  ["C[n+]1cccc(C(=O)[O-])c1", 0.975],
  ["O=C1C=CC2=C3c4cc(O)c(O)cc4CC3(O)COC2=C1O (configuration not stated)", 1.01],
  ["NCCCC[C@H](N[C@@H](CCc1ccccc1)C(=O)O)C(=O)N1CCC[C@H]1C(=O)O", 0.979],
  ["C=C(CC)C(=O)c1ccc(OCC(=O)O)c(Cl)c1Cl", 1.02],
  ["OC[C@@H](O)[C@@H](O[C@@H]1O[C@H](CO)[C@@H](O)[C@H](O)[C@H]1O)[C@H](O)[C@@H](O)CO", 0.992],
  ["CCCCC1=NC2(CCCC2)C(=O)N1Cc1ccc(-c2ccccc2-c2nn[nH]n2)cc1", 1.02]
]}
